Recorded measurements of TGI, one per entry
System: MOLT-4 leukemia
Assay: NCI tumour cell line growth inhibition, 48 h
measured_property: TGI (µM)

cpd_smiles=C/C=C\C(=O)O[C@@H]1CC2O[C@@H]3C=C(C)C(=O)C[C@]3(C)[C@]1(C)[C@]21CO1 reported_measurement=2.24
cpd_smiles=COc1cc(/C=N/n2cnc3oc(-c4ccccc4)cc3c2=N)cc(CN2CCCCC2)c1O reported_measurement=6.57
cpd_smiles=CN1CCN(Cc2ccc(NC(=O)c3cncc(C#Cc4cnc5ccc(NCCCO)nn45)c3)cc2C(F)(F)F)CC1 reported_measurement=1.62
cpd_smiles=Fc1ccc(-c2cc3nc(C(Cl)Cl)nc(-c4ccc(F)cc4)n3n2)cc1 reported_measurement=9.61

###

Recorded measurements of GI50, one per entry
Tested on: EKVX NSCLC
Test: NCI tumour cell line growth inhibition, 48 h
measured_property: GI50

cpd_smiles=C/C=C\C(=O)O[C@@H]1CC2O[C@@H]3C=C(C)C(=O)C[C@]3(C)[C@]1(C)[C@]21CO1 reported_measurement="0.873 µM"
cpd_smiles=Fc1ccc(-c2cc3nc(C(Cl)Cl)nc(-c4ccc(F)cc4)n3n2)cc1 reported_measurement="1.68 µM"
cpd_smiles=CC[C@@H](CO)Nc1ccc2ncc(C#Cc3cncc(C(=O)Nc4ccc(CN5CCN(C)CC5)c(C(F)(F)F)c4)c3)n2n1 reported_measurement="0.142 µM"
cpd_smiles=COc1cc(/C=N/n2cnc3oc(-c4ccccc4)cc3c2=N)cc(CN2CCCCC2)c1O reported_measurement="1.89 µM"
cpd_smiles=CN1CCN(Cc2ccc(NC(=O)c3cncc(C#Cc4cnc5ccc(NCCCO)nn45)c3)cc2C(F)(F)F)CC1 reported_measurement="0.148 µM"

###

Test system: BT-549 breast
Test: NCI tumour cell line growth inhibition, 48 h; in the data active means GI50 below about 0.43 µM; inactive means the rest
Labels: yes (1) (active), no (0) (inactive)

cpd_smiles=CC[C@@H](CO)Nc1ccc2ncc(C#Cc3cncc(C(=O)Nc4ccc(CN5CCN(C)CC5)c(C(F)(F)F)c4)c3)n2n1 assigned_class="no (0)"
cpd_smiles=Fc1ccc(-c2cc3nc(C(Cl)Cl)nc(-c4ccc(F)cc4)n3n2)cc1 assigned_class="no (0)"
cpd_smiles=CN1CCN(Cc2ccc(NC(=O)c3cncc(C#Cc4cnc5ccc(NCCCO)nn45)c3)cc2C(F)(F)F)CC1 assigned_class="yes (1)"
cpd_smiles=COc1cc(/C=N/n2cnc3oc(-c4ccccc4)cc3c2=N)cc(CN2CCCCC2)c1O assigned_class="no (0)"
